molecular target: Full-length (FL)-PRMT5-MEP50 enzyme complex (Homo sapiens, UniProt O14744); construct: Full-length (FL)-PRMT5-MEP50 enzyme complex (recombinant proteins from baculovirus-transfected Sf21 cells: FL-PRMT5; MW=73837 kDa and FL-MEP50; MW=38614); made in house; host or cells: baculovirus-transfected Sf21 insect cells; assay: PRMT5-MEP50 Enzyme Methylation Assay; type: biochemical; conditions: one EC50: 4 parameters single site sigmoidal model; EC50 1: first value of 7 parameters biphasic model; 1.0 nM PRMT5-MEP50, 75 nM biotinylated peptide, 15 μM SAM; read-out: Enzyme Methylation Assay (EC50 or EC50 1)
Sequence (O14744 whole entry): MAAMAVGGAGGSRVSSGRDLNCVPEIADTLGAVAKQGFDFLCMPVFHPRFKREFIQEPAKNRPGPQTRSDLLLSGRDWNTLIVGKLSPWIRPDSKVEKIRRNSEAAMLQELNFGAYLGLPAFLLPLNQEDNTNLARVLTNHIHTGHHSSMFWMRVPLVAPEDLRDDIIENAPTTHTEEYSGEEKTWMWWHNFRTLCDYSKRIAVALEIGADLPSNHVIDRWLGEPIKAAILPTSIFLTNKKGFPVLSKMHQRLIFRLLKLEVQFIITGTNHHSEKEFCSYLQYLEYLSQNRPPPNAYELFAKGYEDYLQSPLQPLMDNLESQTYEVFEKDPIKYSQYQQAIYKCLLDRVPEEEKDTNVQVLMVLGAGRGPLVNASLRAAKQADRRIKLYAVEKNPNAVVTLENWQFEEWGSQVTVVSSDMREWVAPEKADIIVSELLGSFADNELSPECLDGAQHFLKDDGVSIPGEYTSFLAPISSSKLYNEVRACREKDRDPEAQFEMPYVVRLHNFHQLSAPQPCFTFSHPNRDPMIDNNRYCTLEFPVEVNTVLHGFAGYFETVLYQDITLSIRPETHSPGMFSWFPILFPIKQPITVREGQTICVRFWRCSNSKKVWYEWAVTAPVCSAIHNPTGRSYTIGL
Sequence (Q9BQA1 whole entry partner): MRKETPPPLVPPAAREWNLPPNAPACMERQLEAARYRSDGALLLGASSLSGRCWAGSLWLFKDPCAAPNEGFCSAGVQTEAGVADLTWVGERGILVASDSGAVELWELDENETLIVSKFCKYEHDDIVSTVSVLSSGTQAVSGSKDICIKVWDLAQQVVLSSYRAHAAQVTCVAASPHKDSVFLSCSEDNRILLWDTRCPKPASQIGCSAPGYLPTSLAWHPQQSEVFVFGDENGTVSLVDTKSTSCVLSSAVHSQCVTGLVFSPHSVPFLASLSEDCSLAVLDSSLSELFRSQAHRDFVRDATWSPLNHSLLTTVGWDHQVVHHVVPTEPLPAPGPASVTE
Catalogue of EC50 values
PROPERTY LABEL: EC50 (nM)

>>> quantitative_readout("Nc1nc2cc(O[C@H]3CC[C@@]4(O)[C@@H]3O[C@@H](n3ccc5c(C(F)F)ncnc53)[C@@H]4O)ccc2cc1Br")
2.9
>>> quantitative_readout("C[C@]12O[C@@H](n3ccc4c(N)ncnc43)[C@H](O)[C@@]1(O)CC[C@H]2Cc1ccc2cc(F)c(N)nc2c1")
0.4
>>> quantitative_readout("C[C@]1(CCc2ccc3cc4c(nc3c2)NCC4)C[C@@H](n2ccc3c(N)ncnc32)[C@H](O)[C@@H]1O")
0.6
>>> quantitative_readout("Cc1ncnc2c1ccn2[C@@H]1C[C@@H]2[C@H](Cc3ccc4cc(F)c(N)nc4c3)CC[C@]2(O)[C@H]1O")
0.4

----------
target: Full-length (FL)-PRMT5-MEP50 enzyme complex (Homo sapiens, UniProt O14744); construct: Full-length (FL)-PRMT5-MEP50 enzyme complex (recombinant proteins from baculovirus-transfected Sf21 cells: FL-PRMT5; MW=73837 kDa and FL-MEP50; MW=38614); made in house; host or cells: baculovirus-transfected Sf21 insect cells; experiment: PRMT5-MEP50 Enzyme Methylation Assay; type: biochemical; details: one EC50: 4 parameters single site sigmoidal model; EC50 1: first value of 7 parameters biphasic model; 1.0 nM PRMT5-MEP50, 75 nM biotinylated peptide, 15 μM SAM; read-out: Enzyme Methylation Assay (EC50 or EC50 1)
Field: label. Allowed values: Condition met (EC50 < 0.5 nM) or Condition not met (EC50 >= 0.5 nM).

>>> class("Nc1nc2cc(O[C@H]3CC[C@@]4(O)[C@@H]3O[C@@H](n3ccc5c(N)ncnc53)[C@@H]4O)ccc2cc1Br [Example 6]")
"Condition not met"
>>> class("Cc1nc(N)c2ccn([C@@H]3C[C@@H]4[C@H](Cc5ccc6cc(Cl)c(N)nc6c5)CC[C@]4(O)[C@H]3O)c2n1 [Example 31, 2,2,2-trifluoroacetate]")
"Condition met"
>>> class("Nc1ncnc2c1ccn2[C@@H]1O[C@@H]2[C@@H](Oc3ccc4ccc(NCC5CC5)nc4c3)CC[C@]2(O)[C@H]1O [Example 58]")
"Condition met"
>>> class("Cc1ncnc2c1ccn2[C@@H]1O[C@@H]2[C@@H](Oc3ccc4cc(C(F)F)c(N)nc4c3)CC[C@]2(O)[C@H]1O [Example 115]")
"Condition met"
>>> class("Cc1ncnc2c1ccn2[C@@H]1O[C@@H]2[C@H](Cc3cnc4cc(F)c(N)nc4c3)CC[C@]2(O)[C@H]1O [Example 25]")
"Condition not met"
>>> class("Cc1nc(C)c2ccn([C@@H]3O[C@@H]4[C@@H](Oc5ccc6cc(Br)c(N)nc6c5)CC[C@]4(O)[C@H]3O)c2n1 [Example 80, 2,2,2-trifluoroacetate]")
"Condition not met"
>>> class("Cc1nc(C)c2ccn([C@@H]3O[C@@H]4[C@H](Cc5ccc6cc(F)c(N)nc6c5)CC[C@]4(O)[C@H]3O)c2n1 [Example 90]")
"Condition not met"
